The origin of these recorded values is patent US5932619A.

assayComment: physchem
Format: physicochemical
assaySetup: water
endpointName: solubility

| molecule | valueMeasured |
| --- | --- |
| O=C(O)C(OC(C(=O)O)c1ccccc1)c1ccccc1 (stereo not shown) | ~350 mg/mL |
